system: LNZTA3WT4 (Low Grade Glioma); test: Bliss excess, mean over the matrix (fraction); higher = more synergy;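 note: after 72 h of two-drug dosing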
Decision: Bliss excess compared against -0.003; not below it gives 1 (yes), below it gives 0 (no).

Exercise: Does Bliss excess meet or surpass -0.003 for CC1(C)CCC(CN2CCN(c3ccc(C(=O)NS(=O)(=O)c4ccc(NCC5CCOCC5)c([N+](=O)[O-])c4)c(Oc4cnc5[nH]ccc5c4)c3)CC2)=C(c2ccc(Cl)cc2)C1 [Venetoclax] + C[C@@H]1COCCN1C2=NC(=NC(=C2)C3(CC3)[S@](=N)(=O)C)C4=C5C=CNC5=NC=C4 [AZD6738] (first compound max 1 µM, 7x7, partner max 10 µM) ?
Solution: 1 (yes)

Exercise: Cool, now Cc1c2c(nn1C)CSCc1cc(n(C)n1)CSc1cc(c3ccccc3c1)OCCCc1c(C(=O)O)n(C)c3c-2c(Cl)ccc13 [AZD5991] + C[C@@H]1COCCN1C2=NC(=NC(=C2)C3(CC3)[S@](=N)(=O)C)C4=C5C=CNC5=NC=C4 [AZD6738] (first compound max 1 µM, 7x7, partner max 10 µM)
Solution: 1 (yes)

Exercise: Cool, now C=CCn1c(=O)c2cnc(Nc3ccc(N4CCN(C)CC4)cc3)nc2n1-c1cccc(C(C)(C)O)n1 [AZD1775] + C1CN(CCC1(C(=O)N[C@@H](CCO)C2=CC=C(C=C2)Cl)N)C3=NC=NC4=C3C=CN4 [Capivasertib] (first compound max 3 µM, partner max 3 µM)
Solution: 0 (no)

Exercise: Cool, now COc1cccc(OCCCN)c1-c1cc(Nc2cnc(C#N)cn2)n[nH]1 [Prexasertib] + C[C@@H]1COCCN1C2=NC(=NC(=C2)C3(CC3)[S@](=N)(=O)C)C4=C5C=CNC5=NC=C4 [AZD6738] (first compound max 1 µM, 7x7, partner max 10 µM)
Solution: 0 (no)

Exercise: Cool, now C[C@@H]1COCCN1c1cc(C2([S@](C)(=N)=O)CC2)nc(-c2ccnc3[nH]ccc23)n1 [AZD6738] + Nc1ccn([C@@H]2O[C@H](CO)[C@@H](O)C2(F)F)c(=O)n1 [Gemcitabine] (first compound max 10 µM, 7x7, partner max 0.3 µM)
Solution: 1 (yes)

---

tested on: TGBC1TKB (Biliary Tract Carcinoma); experiment: Bliss excess, mean over the matrix (fraction); higher = more synergy
Decision: Bliss excess compared against -0.005; not below it gives Criterion met, below it gives Criterion not met.

Exercise: Does Bliss excess meet or surpass -0.005 for C=CCn1c(=O)c2cnc(Nc3ccc(N4CCN(C)CC4)cc3)nc2n1-c1cccc(C(C)(C)O)n1 [AZD1775] + Nc1ccn([C@@H]2O[C@H](CO)[C@@H](O)C2(F)F)c(=O)n1 [Gemcitabine] (first compound max 1 µM, partner max 0.3 µM) ?
Solution: Criterion not met

Exercise: Cool, now Cc1c2c(nn1C)CSCc1cc(n(C)n1)CSc1cc(c3ccccc3c1)OCCCc1c(C(=O)O)n(C)c3c-2c(Cl)ccc13 [AZD5991] + Nc1ccn([C@@H]2O[C@H](CO)[C@@H](O)C2(F)F)c(=O)n1 [Gemcitabine] (first compound max 1 µM, 7x7, partner max 0.3 µM)
Solution: Criterion met

Exercise: Cool, now CN(CCO)CC[C@H](CSc1ccccc1)Nc1ccc(S(=O)(=O)NC(=O)c2ccc(N3CCC([C@@H](O)c4ccccc4-c4ccc(Cl)cc4)CC3)cc2)cc1S(=O)(=O)C(F)(F)F [AZD4320] + CCN(CCO)CCCOc1ccc2c(Nc3cc(CC(=O)Nc4cccc(F)c4)[nH]n3)ncnc2c1 [AZD2811] (first compound max 1 µM, 7x7, partner max 1 µM)
Solution: Criterion not met

Exercise: Cool, now Cc1nc(-c2cn3c(n2)-c2ccc(-c4cnn(C(C)(C)C(N)=O)c4)cc2OCC3)n(C(C)C)n1 [Taselisib] + O=C(Nc1ccc2[nH]nc(-c3ccncc3)c2c1)[C@@H]1CCN(CC(=O)N2CCN(c3ccc(-c4ncccn4)cc3)CC2)C1 [SCH772984] (first compound max 10 µM, 7x7, partner max 5 µM)
Solution: Criterion met

Exercise: Cool, now CC1(C)CCC(CN2CCN(c3ccc(C(=O)NS(=O)(=O)c4ccc(NCC5CCOCC5)c([N+](=O)[O-])c4)c(Oc4cnc5[nH]ccc5c4)c3)CC2)=C(c2ccc(Cl)cc2)C1 [Venetoclax] + CCN(CCO)CCCOc1ccc2c(Nc3cc(CC(=O)Nc4cccc(F)c4)[nH]n3)ncnc2c1 [AZD2811] (first compound max 1 µM, 7x7, partner max 1 µM)
Solution: Criterion not met

Exercise: Cool, now CC1(C)CCC(CN2CCN(c3ccc(C(=O)NS(=O)(=O)c4ccc(NCC5CCOCC5)c([N+](=O)[O-])c4)c(Oc4cnc5[nH]ccc5c4)c3)CC2)=C(c2ccc(Cl)cc2)C1 [Venetoclax] + Cn1cnc2c(F)c(Nc3ccc(Br)cc3Cl)c(C(=O)NOCCO)cc21 [Selumetinib] (first compound max 1 µM, 7x7, partner max 3 µM)
Solution: Criterion not met

Exercise: Cool, now CCN(CCO)CCCOc1ccc2c(Nc3cc(CC(=O)Nc4cccc(F)c4)[nH]n3)ncnc2c1 [AZD2811] + C[C@@H]1COCCN1C2=NC(=NC(=C2)C3(CC3)[S@](=N)(=O)C)C4=C5C=CNC5=NC=C4 [AZD6738] (first compound max 1 µM, 7x7, partner max 10 µM)
Solution: Criterion not met
